procedure_details: Water solubility test (observation and HPLC)
Format: physicochemical
setup_conditions: thermodynamic from solid
Experimental: The compounds prepared in accordance with the examples of the disclosure and the reference compounds C1, C2, C3 and C4 were lyophilized (−70° C.).
Where a SMILES comes first, the peptide text is derived from it. The star is where a group is joined. Doxorubicin(3'-N) = COc1cccc2c1C(=O)c1c(O)c3c(c(O)c1C2=O)C[C@@](O)(C(=O)CO)C[C@@H]3O[C@H]1C[C@H](N*)[C@H](O)[C@H](C)O1; Hexanoyl(6-maleimido) = O=C1C=CC(=O)N1CCCCCC(=O)*
Exercise: for every item that follows, state its recorded solubility.

Observe how each entry below is paired with its result.
COc1cccc2c1C(=O)c1c(O)c3c(c(O)c1C2=O)C[C@@](O)(C(=O)CO)C[C@@H]3O[C@H]1C[C@H](NC(=O)[C@H](CC(C)C)NC(=O)[C@H](CC(N)=O)NC(=O)[C@H](C)NC(=O)[C@H](C)NC(=O)[C@@H](NC(=O)CCCCCN2C(=O)C=CC2=O)C(C)C)[C@H](O)[C@H](C)O1 [QHL-123-DOX] ({Hexanoyl(6-maleimido)}-VAANL-{Doxorubicin(3'-N)}) ... > 2000 µg/mL
CCOCc1nc2c(NC(=O)OCc3ccc(NC(=O)[C@H](CC(N)=O)NC(=O)[C@H](C)NC(=O)[C@H](C)NC(=O)CCOCCOCCNC(=O)CCN4C(=O)C=CC4=O)cc3)nc3ccccc3c2n1CC(C)(C)O [QHL-086-Resiquimod] ... > 10000 µg/mL

# return solubility for each item in the list
1. CCOCc1nc2c(NC(=O)OCc3ccc(NC(=O)[C@@H](CC(N)=O)NC(=O)[C@H](C)NC(=O)[C@H](C)NC(=O)CCOCCOCCN4C(=O)C=CC4=O)cc3)nc3ccccc3c2n1CC(C)(C)O [QHL-005-Resiquimod]
2. CCOCc1nc2c(NC(=O)OCc3ccc(NC(=O)C(CC(N)=O)NC(=O)[C@H](C)NC(=O)[C@H](C)NC(=O)CCOCCOCCOCCOCCNC(=O)CCN4C(=O)C=CC4=O)cc3)nc3ccccc3c2n1CC(C)(C)O (stereo partly drawn) [QHL-092-Resiquimod]

Data returned:
["> 10000 µg/mL", "> 10000 µg/mL"]

###

Test system: CT26 tumor
procedure_details: CT26 tumor immune model, tumor suppression and CD8+ T cell analysis
Type: in vivo, BALB/c mice
setup_conditions: drug 36 umol/kg once a week for three weeks; PD-1 antibody 5 mg/kg
Where a SMILES comes first, the peptide text is derived from it. [ ]: non-standard residue; d: D form. The star is where a group is joined. ξ: configuration not given here. Doxorubicin(3'-N) = COc1cccc2c1C(=O)c1c(O)c3c(c(O)c1C2=O)C[C@@](O)(C(=O)CO)C[C@@H]3O[C@H]1C[C@H](N*)[C@H](O)[C@H](C)O1; X2 = CC(C)(C)c1nc(-c2cccc(NS(=O)(=O)c3c(F)cccc3F)c2F)c(-c2ccnc(N*)n2)s1; Hexanoyl(6-maleimido) = O=C1C=CC(=O)N1CCCCCC(=O)*; Propanoyl(3-maleimido) = O=C1C=CC(=O)N1CCC(=O)*; PEG3 = NCCOCCOCCOCCC(=O)O; PEG2 = NCCOCCOCCC(=O)O; ξL = CC(C)CC(N)C(=O)O
reported_endpoint: Tumor inhibition rate (%) Day 28
Give bare numbers, in %.

CC(C)CC(NC(=O)[C@@H](CC(N)=O)NC(=O)[C@@H](C)NC(=O)[C@@H](C)NC(=O)CCOCCOCCNC(=O)CCN1C(=O)C=CC1=O)C(=O)Nc1nccc(-c2sc(C(C)(C)C)nc2-c2cccc(NS(=O)(=O)c3c(F)cccc3F)c2F)n1 (stereo partly shown) [QHL-087-dabrafenib] ({Propanoyl(3-maleimido)-PEG2}-[dA][dA][dN][ξL]-X2) ... 64.0

Dear reader, for each entry below, please note its Tumor inhibition rate (%) Day 28.
1. CC(C)CC(NC(=O)[C@@H](CC(N)=O)NC(=O)[C@@H](C)NC(=O)[C@@H](C)NC(=O)CCOCCOCCOCCNC(=O)CCN1C(=O)C=CC1=O)C(=O)Nc1nccc(-c2sc(C(C)(C)C)nc2-c2cccc(NS(=O)(=O)c3c(F)cccc3F)c2F)n1 (stereo partly shown) [QHL-090-dabrafenib] ({Propanoyl(3-maleimido)-PEG3}-[dA][dA][dN][ξL]-X2)
2. CCOCc1nc2c(NC(=O)OCc3ccc(NC(=O)[C@H](CC(N)=O)NC(=O)[C@H](C)NC(=O)[C@H](C)NC(=O)CCCCCN4C(=O)C=CC4=O)cc3)nc3ccccc3c2n1CC(C)(C)O [QHL-140-resiquimod]
3. COc1cccc2c1C(=O)c1c(O)c3c(c(O)c1C2=O)C[C@@](O)(C(=O)CO)C[C@@H]3O[C@H]1C[C@H](NC(=O)[C@H](CC(C)C)NC(=O)[C@H](CC(N)=O)NC(=O)[C@H](C)NC(=O)[C@H](C)NC(=O)CCCCCN2C(=O)C=CC2=O)[C@H](O)[C@H](C)O1 [EMC-AANL-DOX] ({Hexanoyl(6-maleimido)}-AANL-{Doxorubicin(3'-N)})

Data returned:
1. 68.7
2. 81.9
3. 66.9

###

procedure_details: Water solubility test (observation and HPLC)
Type: physicochemical
setup_conditions: thermodynamic from solid
Where a SMILES comes first, the peptide text is derived from it. [ ]: non-standard residue; d: D form. The star is where a group is joined. Thyronine(3,5,3'-I3) = N[C@@H](Cc1cc(I)c(Oc2ccc(O)c(I)c2)c(I)c1)C(=O)O; Propanoyl(3-maleimido) = O=C1C=CC(=O)N1CCC(=O)*; X3 = O=C1C=CC(=O)N1CCOCCOCCC(=O)*; PEG4 = NCCOCCOCCOCCOCCC(=O)O
reported_endpoint: solubility

Example molecules with recorded solubility:
C[C@@H](NC(=O)CCOCCOCCNC(=O)CCN1C(=O)C=CC1=O)C(=O)N[C@H](C)C(=O)N[C@H](CC(N)=O)C(=O)Nc1ccc(COC(=O)N2CC(C)(C)c3ccc(NC(=O)c4cccnc4NCc4ccncc4)cc32)cc1 [QHL-089-Motesani] ... > 20000 µg/mL
CC(NC(=O)CCOCCOCCOCCNC(=O)CCN1C(=O)C=CC1=O)C(=O)NC(C)C(=O)NC(CC(N)=O)C(=O)Nc1ccc(COC(=O)N2CC3(C2)C(=O)[O][Pt-2]([NH3+])([NH3+])[O]C3=O)cc1 (stereo not shown) [QHL-089-N-CBP] ... > 10000 µg/mL
C[C@H](NC(=O)CCOCCOCCN1C(=O)C=CC1=O)C(=O)N[C@@H](C)C(=O)N[C@H](CC(N)=O)C(=O)N[C@@H](Cc1cc(I)c(Oc2ccc(O)c(I)c2)c(I)c1)C(=O)O [QHL-153-T3] (X3-AA[dN][Thyronine(3,5,3'-I3)]-OH) ... > 10000 µg/mL

Data request: Requested read-out: solubility. Entry: C[C@H](NC(=O)CCOCCOCCOCCOCCNC(=O)CCN1C(=O)C=CC1=O)C(=O)N[C@@H](C)C(=O)N[C@@H](CC(N)=O)C(=O)N[C@@H](Cc1cc(I)c(Oc2ccc(O)c(I)c2)c(I)c1)C(=O)O [QHL-159-T3] ({Propanoyl(3-maleimido)-PEG4}-AAN[Thyronine(3,5,3'-I3)]-OH)
Data returned: > 10000 µg/mL

###

System: Human hepatoma HepG2 cells
procedure_details: Human liver cancer HepG2 tumors in nude mice
Format: in vivo
setup_conditions: 54 umol/kg IV once a week for 4 weeks
Where a SMILES comes first, the peptide text is derived from it. The star is where a group is joined. Doxorubicin(3'-N) = COc1cccc2c1C(=O)c1c(O)c3c(c(O)c1C2=O)C[C@@](O)(C(=O)CO)C[C@@H]3O[C@H]1C[C@H](N*)[C@H](O)[C@H](C)O1; Mal(CH2CH2O)6CH2CH2CO = O=C1C=CC(=O)N1CCOCCOCCOCCOCCOCCOCCC(=O)*; MaleimidoPEG4propanoyl = O=C1C=CC(=O)N1CCOCCOCCOCCOCCC(=O)*; Hexanoyl(6-maleimido) = O=C1C=CC(=O)N1CCCCCC(=O)*; X1 = O=C1C=CC(=O)N1CCOCCOCCOCCC(=O)*; X3 = O=C1C=CC(=O)N1CCOCCOCCC(=O)*; MeOCH2CH2OCH2CO = COCCOCC(=O)*
reported_endpoint: Tumor volume (mm^3) Day 28

// solved cases for Tumor volume (mm^3) Day 28 follow
COc1cccc2c1C(=O)c1c(O)c3c(c(O)c1C2=O)C[C@@](O)(C(=O)CO)C[C@@H]3O[C@H]1C[C@H](NC(=O)[C@H](CC(C)C)NC(=O)[C@H](CC(N)=O)NC(=O)[C@H](C)NC(=O)[C@H](C)N)[C@H](O)[C@H](C)O1 [AANL-DOX, reference compound] (H-AANL-{Doxorubicin(3'-N)}) ... 1564 ± 689.4 mm^3
COc1cccc2c1C(=O)c1c(O)c3c(c(O)c1C2=O)C[C@@](O)(C(=O)CO)C[C@@H]3O[C@H]1C[C@H](NC(=O)[C@H](CC(C)C)NC(=O)[C@H](CC(N)=O)NC(=O)[C@H](C)NC(=O)[C@H](C)NC(=O)CCOCCOCCOCCOCCN2C(=O)C=CC2=O)[C@H](O)[C@H](C)O1 [QHL-011-DOX] (MaleimidoPEG4propanoyl-AANL-{Doxorubicin(3'-N)}) ... 98.1 ± 48.4 mm^3
COc1cccc2c1C(=O)c1c(O)c3c(c(O)c1C2=O)C[C@@](O)(C(=O)CO)C[C@@H]3O[C@H]1C[C@H](NC(=O)[C@H](CC(C)C)NC(=O)[C@H](CC(N)=O)NC(=O)[C@H](C)NC(=O)[C@H](C)NC(=O)CCCCCN2C(=O)C=CC2=O)[C@H](O)[C@H](C)O1 [EMC-AANL-DOX] ({Hexanoyl(6-maleimido)}-AANL-{Doxorubicin(3'-N)}) ... 218.3 ± 167.7 mm^3
COCCOCC(=O)N[C@@H](C)C(=O)N[C@@H](C)C(=O)N[C@@H](CC(N)=O)C(=O)N[C@@H](CC(C)C)C(=O)N[C@H]1C[C@H](O[C@H]2C[C@](O)(C(=O)CO)Cc3c(O)c4c(c(O)c32)C(=O)c2c(OC)cccc2C4=O)O[C@@H](C)[C@H]1O [C4 PEG-AANL-DOX, reference compound] (MeOCH2CH2OCH2CO-AANL-{Doxorubicin(3'-N)}) ... 848.7 ± 347.5 mm^3
COc1cccc2c1C(=O)c1c(O)c3c(c(O)c1C2=O)C[C@@](O)(C(=O)CO)C[C@@H]3O[C@H]1C[C@H](NC(=O)[C@H](CC(C)C)NC(=O)[C@H](CC(N)=O)NC(=O)[C@H](C)NC(=O)[C@H](C)NC(=O)CCOCCOCCOCCOCCOCCOCCN2C(=O)C=CC2=O)[C@H](O)[C@H](C)O1 [QHL-012-DOX] ({Mal(CH2CH2O)6CH2CH2CO}-AANL-{Doxorubicin(3'-N)}) ... 197.4 ± 104.5 mm^3

Quick batch: Tumor volume (mm^3) Day 28 for everything below.
1. COc1cccc2c1C(=O)c1c(O)c3c(c(O)c1C2=O)C[C@@](O)(C(=O)CO)C[C@@H]3O[C@H]1C[C@H](NC(=O)[C@H](CC(C)C)NC(=O)[C@H](CC(N)=O)NC(=O)[C@H](C)NC(=O)[C@H](C)NC(=O)CCOCCOCCN2C(=O)C=CC2=O)[C@H](O)[C@H](C)O1 [QHL-009-DOX] (X3-AANL-{Doxorubicin(3'-N)})
2. COc1cccc2c1C(=O)c1c(O)c3c(c(O)c1C2=O)C[C@@](O)(C(=O)CO)C[C@@H]3O[C@H]1C[C@H](NC(=O)[C@H](CC(C)C)NC(=O)[C@H](CC(N)=O)NC(=O)[C@H](C)NC(=O)[C@H](C)NC(=O)CCOCCOCCOCCN2C(=O)C=CC2=O)[C@H](O)[C@H](C)O1 [QHL-010-DOX] (X1-AANL-{Doxorubicin(3'-N)})

Data returned:
1. 0 mm^3
2. 0 mm^3
